- targetOfAssay: human P450 17A1 (Homo sapiens, UniProt P05093)
- Sequence (P05093 24-508 limits assumed): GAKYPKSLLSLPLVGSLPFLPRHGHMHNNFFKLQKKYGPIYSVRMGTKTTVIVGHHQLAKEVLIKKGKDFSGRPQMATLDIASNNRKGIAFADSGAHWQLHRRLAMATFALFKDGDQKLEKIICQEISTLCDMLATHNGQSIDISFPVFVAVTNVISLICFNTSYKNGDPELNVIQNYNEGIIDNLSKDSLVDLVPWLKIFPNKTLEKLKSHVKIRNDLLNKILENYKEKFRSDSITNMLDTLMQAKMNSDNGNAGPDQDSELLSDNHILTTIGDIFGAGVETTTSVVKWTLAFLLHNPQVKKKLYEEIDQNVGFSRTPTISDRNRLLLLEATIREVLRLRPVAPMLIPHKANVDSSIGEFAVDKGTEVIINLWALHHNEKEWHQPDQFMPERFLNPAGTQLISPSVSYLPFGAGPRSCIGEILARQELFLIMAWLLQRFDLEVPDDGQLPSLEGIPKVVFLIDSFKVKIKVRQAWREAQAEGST
- experimentalProtocol: IC50 determination, 17α-OH pregnenolone lyase activity (DHEA formation), reconstituted P450 17A1/POR/b5
- Assay type: biochemical
- testContext: IC50 (95% CI limits), 17α-OH pregnenolone lyase, steady-state; 0.02 μM P450 17A1, 1.5 μM 17α-OH pregnenolone, 37 °C

compound: C[C@]12CC[C@H](O)CC1=CC[C@@H]1[C@@H]2CC[C@]2(C)C(c3cccnc3)=CC[C@@H]12 [Abiraterone, 17-(3-pyridyl)androsta-5,16-dien-3β-ol]
targetOfAssay: human P450 17A1 (Homo sapiens, UniProt P05093)
u: µM
IC50: 0.0042

compound: Clc1ccccc1C(c1ccccc1)(c1ccccc1)n1ccnc1 [Clotrimazole]
targetOfAssay: human P450 17A1 (Homo sapiens, UniProt P05093)
u: µM
IC50: 0.099

compound: CC(C)[C@](O)(c1ccc2cc(OC(F)F)c(OC(F)F)cc2c1)c1c[nH]nn1 [Seviteronel, (S)-Seviteronel]
targetOfAssay: human P450 17A1 (Homo sapiens, UniProt P05093)
u: µM
IC50: 3.43

====

- targetOfAssay: human P450 17A1 (Homo sapiens, UniProt P05093)
- experimentalProtocol: IC50 determination, 17α-OH pregnenolone lyase activity (DHEA formation), reconstituted P450 17A1/POR/b5
- Assay type: biochemical
- testContext: This work (Fig. 3, Table 1); read-out: IC50, 17α-OH pregnenolone to DHEA (lyase)
pIC50: −log10 of the molar value.
measurementName: pIC50

compound: CC(C)[C@](O)(c1ccc2cc(OC(F)F)c(OC(F)F)cc2c1)c1c[nH]nn1 [Seviteronel, (S)-Seviteronel]
assayResult: 5.47

====

- targetOfAssay: human P450 17A1 (Homo sapiens)
- experimentalProtocol: IC50 determination, progesterone 17α-hydroxylation (17α-OH progesterone formation), reconstituted P450 17A1/POR/b5
- Type: biochemical
- testContext: IC50 = Ki [1 + (S/Km)] for competitive inhibition, Km from Ref. 37; read-out: Predicted Ki, progesterone 17α-hydroxylation
Listing of recorded Ki by entry.

molecule: Clc1ccccc1C(c1ccccc1)(c1ccccc1)n1ccnc1
u: µM
Ki: 0.023
//
molecule: CC(C)[C@](O)(c1ccc2cc(OC(F)F)c(OC(F)F)cc2c1)c1c[nH]nn1 [Seviteronel, (S)-Seviteronel]
u: µM
Ki: 1.37
//
molecule: C[C@]12CC[C@H](O)CC1=CC[C@@H]1[C@@H]2CC[C@]2(C)C(c3cccnc3)=CC[C@@H]12
u: µM
Ki: 0.0013

====

- targetOfAssay: human P450 17A1 (Homo sapiens, UniProt P05093)
- experimentalProtocol: KinTek Explorer modeling of kinetics of inhibition of progesterone 17α-hydroxylation
- Assay type: biochemical
- testContext: fit of Figure 10E data; E 2 μM, S 5 μM progesterone, I 1 μM; read-out: Kd as a competitive inhibitor (value giving adequate model fits)
pKd: −log10 of the molar value.

structureSmilesString: C[C@]12CC[C@H](O)CC1=CC[C@@H]1[C@@H]2CC[C@]2(C)C(c3cccnc3)=CC[C@@H]12
pKd: 9.00

====

- targetOfAssay: human P450 17A1 (Homo sapiens, UniProt P05093)
- experimentalProtocol: IC50 determination, progesterone 17α-hydroxylation (17α-OH progesterone formation), reconstituted P450 17A1/POR/b5
- Type: biochemical
- testContext: IC50 (95% CI limits), progesterone 17α-hydroxylation, steady-state; 0.02 μM P450 17A1, 5 μM progesterone, 37 °C
pIC50: −log10 of the molar value.
Listing of recorded pIC50 by entry.

compound: Clc1ccccc1C(c1ccccc1)(c1ccccc1)n1ccnc1
pIC50: 7.22
//
compound: C[C@]12CC[C@H](O)CC1=CC[C@@H]1[C@@H]2CC[C@]2(C)C(c3cccnc3)=CC[C@@H]12
pIC50: 8.49
//
compound: CC(C)[C@](O)(c1ccc2cc(OC(F)F)c(OC(F)F)cc2c1)c1c[nH]nn1 [Seviteronel, (S)-Seviteronel]
pIC50: 5.46
